B1: SPRY1 (parent)
chain: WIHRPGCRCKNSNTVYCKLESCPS

- Variants of: B1
- assay overview: protein stability index of a GFP-peptide fusion (GPS, HEK-293T) (PSI 1-6); higher = more stable;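 further: lentivirally expressed fusions sorted by FACS into six bins by GFP to DsRed ratio, PSI derived from sequencing read proportions per bin multiplied by bin number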
- test settings: c terminus: a fixed tail appended
measured metric: protein stability index

[[record]]
sequence_string = "WIHRPGCRQKNSNTVYCKLESCPS [C9Q]"
assay_value = 2

[[record]]
sequence_string = "WIHRAGCRCKNSNTVYCKLESCPS [P5A]"
assay_value = 2.02

[[record]]
sequence_string = "WIHRPGCRCKNSNTVYCKLESCYS [P23Y]"
assay_value = 1.99

[[record]]
sequence_string = "WIHRPGCRDKNSNTVYCKLESCPS [C9D]"
assay_value = 2.07

[[record]]
sequence_string = "WIHRPGCRCKNSNTVECKLESCPS [Y16E]"
assay_value = 3.28

[[record]]
sequence_string = "WIHRPGCRCKNSNTVYCKLESCTS [P23T]"
assay_value = 1.83

[[record]]
sequence_string = "WIHIPGCRCKNSNTVYCKLESCPS [R4I]"
assay_value = 2.82

[[record]]
sequence_string = "WIHHPGCRCKNSNTVYCKLESCPS [R4H]"
assay_value = 3.3

[[record]]
sequence_string = "WIHRPGCRCKNSNTVYCKLELCPS [S21L]"
assay_value = 1.7

[[record]]
sequence_string = "WIHRPGCRCKNSNTVYCPLESCPS [K18P]"
assay_value = 2.03

[[record]]
sequence_string = "DIHRPGCRCKNSNTVYCKLESCPS [W1D]"
assay_value = 4.38

[[record]]
sequence_string = "WIHRPGCRCKNSNTVYCKLESFPS [C22F]"
assay_value = 1.8

[[record]]
sequence_string = "WIHRPGRRCKNSNTVYCKLESCPS [C7R]"
assay_value = 3.4

[[record]]
sequence_string = "WIVRPGCRCKNSNTVYCKLESCPS [H3V]"
assay_value = 1.72

[[record]]
sequence_string = "WIHRPGCRCGNSNTVYCKLESCPS [K10G]"
assay_value = 2.75

[[record]]
sequence_string = "WIHRPGCRCKNSNTLYCKLESCPS [V15L]"
assay_value = 2.34

